B1: library; numbered along this chain (parent)
chain: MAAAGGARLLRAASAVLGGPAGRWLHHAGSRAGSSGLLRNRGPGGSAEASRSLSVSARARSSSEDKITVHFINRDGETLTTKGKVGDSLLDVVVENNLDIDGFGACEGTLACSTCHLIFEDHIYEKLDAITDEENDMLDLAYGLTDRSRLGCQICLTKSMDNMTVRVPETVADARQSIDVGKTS

# Variants of: B1
# assay-comment: scaled log2 fold change in cell abundance, elesclomol vs control (0 = silent mean, 1 = nonsense mean) (scaled log2 ratio); higher = higher viability under elesclomol (loss of FDX1 cuproptosis function);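 note: variant abundance is its share of total variant reads in each endpoint sample, from next-generation sequencing of the integrated ORF PCR-amplified out of genomic DNA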
# condition-notes: with HEK293T FDX1 KO; elesclomol 40 nM; glucose 10 mM; 11 days
Using scaled log2 fold change as the sorting value, the categories are low (below -0.3), mid (-0.3 to below 0.3), high (0.3 or more)

> print(dat)
   mutant  discrete.label
1    S52N             mid

Lab log: "S34L" — assign scaled log2 fold change category
low

Please classify: "L53A"
high

For the record "A3R" , report the class its scaled log2 fold change corresponds to.
low

Form field 'band' for "T109P"
high

Form field 'band' for "E64S"
low

// bin(item) where item = "R166N"
high

Which scaled log2 fold change category applies to "R39I" here?
high
